# experiment description: gradient 5% acetonitrile 3 min, to 50% in 2 min, to 85% in 15 min, held 3 min, 100 µL/min
# experimental parameters: column: Zorbax Extend-C18 2.1 x 50 mm; eluents: water / acetonitrile, 0.1% formic acid
attribute measured: RP-LC retention time (s)

compound | RP-LC retention time / s
CCOC(=O)c1c(S(=O)(=O)N2CCC(C(=O)Nc3cccnc3)CC2)c(C)n(C)c1C | 623
CS(=O)(=O)N1CCC(C(=O)NC2CCCCCCC2)Oc2ccc(Cl)cc21 (stereo not given) | 1070
O=c1c2cc(-c3ccc(F)cc3)nn2ccn1Cc1ccc(Cl)cc1 | 1090
C1=CC2(C=C1)OC21CCC2(C=CC3(C2)OC3C2CCCCC2)CC1 (stereo not given) | 798
OC[C@@H]1CNC[C@H]1C1CCN(Cc2cccc(Cl)c2F)CC1 | 806
